Ref: paper PMC5216056

Assay: Pharmacokinetics, oral administration in mice
Format: in vivo, mouse
Conditions: male, C57BL/6J or C57BL/6JRj, mouse, plasma, po, 5 mg/kg, p.o., read-out: Cmax
Value kind: Cmax

>>> result("CCCCCCC(C)(C)c1cc(OC)c([C@@H]2C=C(CO)[C@@H]3C[C@H]2C3(C)C)c(OC)c1 [HU308]")
"201 ng/mL"

====

Test system: Ca2+ channel (L, diltiazem site)
Assay: CEREP panel
Format: binding
Conditions: 10 µM
# maps each entry to its % inhibition Ca2+ channel (L, diltiazem site)
Value kind: % inhibition Ca2+ channel (L, diltiazem site) (%)

>>> recorded_number("CCCCCCC(C)(C)c1ccc([C@@H]2C[C@H](O)CC[C@H]2CCCO)c(O)c1 [CP55940]")
-7
>>> recorded_number("COc1ccc(C(=O)c2c(C)n(CCN3CCOCC3)c3cc(I)ccc23)cc1 [AM630]")
-11
>>> recorded_number("CN1CCCC[C@H]1Cn1cc(C(=O)c2cc([N+](=O)[O-])ccc2I)c2ccccc21 [(S)-AM1241]")
90
>>> recorded_number("Cc1ccc2c(c1)Cc1c(C(=O)NN3CCCCC3)nn(-c3ccc(Cl)cc3Cl)c1-2 [Gp-1a]")
34
>>> recorded_number("Cc1c(C(=O)c2cccc3ccccc23)c2cccc3c2n1[C@H](CN1CCOCC1)CO3 [WIN55212-2]")
55
>>> recorded_number("CCCn1c(C)c(C(=O)c2cccc3ccccc23)c2ccccc21 [JWH015]")
33
